Target: T1, Chryseobacterium sp-62563 deamidase polypeptide (second polypeptide, deamidase domain), wildtype (Chryseobacterium sp-62563)
T1 sequence: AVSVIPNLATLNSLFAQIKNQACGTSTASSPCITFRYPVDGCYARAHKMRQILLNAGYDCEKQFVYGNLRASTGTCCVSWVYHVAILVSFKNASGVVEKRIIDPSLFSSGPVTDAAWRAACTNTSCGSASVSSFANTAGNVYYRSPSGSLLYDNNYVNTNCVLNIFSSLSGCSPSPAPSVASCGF
Assay: cell-based or functional assay
Each entry below carries its recorded NanoDSF thermal unfolding temperature.
Respond with the bare value in ° C..

Worked examples, 7 binders total:
Chryseobacterium sp-62563 propeptide Y94P (protein) NQDPNLVAKESNETAMKDFGKTVPVGIEKEDGKFKISFMVTAQPYEIKDSKENAAYISMIKTAVENETPIHVFLKANTNEIAKVDKATDDDIRPFKSVFTKEVKEENRK ... 75.2
Chryseobacterium sp-62563 propeptide Y45I (protein) NQDPNLVAKESNETAMKDFGKTVPVGIEKEDGKFKISFMVTAQPIEIKDSKENAAYISMIKTAVENETPIHVFLKANTNEIAKVDKATDDDIRYFKSVFTKEVKEENRK ... 76.4
Chryseobacterium sp-62563 propeptide V23S (protein) NQDPNLVAKESNETAMKDFGKTSPVGIEKEDGKFKISFMVTAQPYEIKDSKENAAYISMIKTAVENETPIHVFLKANTNEIAKVDKATDDDIRYFKSVFTKEVKEENRK ... 69.8
Chryseobacterium sp-62563 propeptide P69S (protein) NQDPNLVAKESNETAMKDFGKTVPVGIEKEDGKFKISFMVTAQPYEIKDSKENAAYISMIKTAVENETSIHVFLKANTNEIAKVDKATDDDIRYFKSVFTKEVKEENRK ... 77.7
Chryseobacterium sp-62563 propeptide Y45T (protein) NQDPNLVAKESNETAMKDFGKTVPVGIEKEDGKFKISFMVTAQPTEIKDSKENAAYISMIKTAVENETPIHVFLKANTNEIAKVDKATDDDIRYFKSVFTKEVKEENRK ... 73.7
Chryseobacterium sp-62563 propeptide Y45R (protein) NQDPNLVAKESNETAMKDFGKTVPVGIEKEDGKFKISFMVTAQPREIKDSKENAAYISMIKTAVENETPIHVFLKANTNEIAKVDKATDDDIRYFKSVFTKEVKEENRK ... 78.1
Chryseobacterium sp-62563 propeptide F99K (protein) NQDPNLVAKESNETAMKDFGKTVPVGIEKEDGKFKISFMVTAQPYEIKDSKENAAYISMIKTAVENETPIHVFLKANTNEIAKVDKATDDDIRYFKSVKTKEVKEENRK ... 75.4

Let us examine a further case.
Which NanoDSF thermal unfolding temperature reading was recorded for the binder Chryseobacterium sp-62563 propeptide Y45G (protein) NQDPNLVAKESNETAMKDFGKTVPVGIEKEDGKFKISFMVTAQPGEIKDSKENAAYISMIKTAVENETPIHVFLKANTNEIAKVDKATDDDIRYFKSVFTKEVKEENRK ?
65.2
